molecular target: Retinaldehyde dehydrogenase 3 (Homo sapiens) (UniProt P47895); experiment: qHTS for Inhibitors of the Aldehyde Dehydrogenase Family (ALDH1A3) Confirmatory screens (AID 2061311); conditions: ALDH inhibition qHTS; series mostly up to 46 µM; note: nearly all actives have a fitted effect of over 60% in size
Inconclusive results are not listed. Activity calls are given as the source filed them. Calls come from the whole dose curve; as a rule, active = well fitted inhibition curve with a large enough effect; inconclusive = small, poorly fitted or top-dose-only effect; inactive = no such curve, though single readings can be large or run the other way.
Your reply should match one of these outcome classes. 1 = active, -1 = inactive

Example results:
> print(dat)
                           substance.smiles  label.value
1     Cc1occc1-c1ccc2ncnc(NCc3ncc[nH]3)c2c1            1
2  Cc1ccc(S(=O)(=O)Nc2cc(C(F)(F)F)ccc2C(=O)Nc2nc(-c3ccccc3)cs2)cc1           -1
3  N#Cc1nc(-c2ccc(COc3ccccc3)o2)oc1N1CCN(c2ccccc2)CC1           -1
4  CN(C)c1cccc(-c2cnc(N3CCC(c4ncc[nH]4)CC3)s2)c1            1

Could you please tell me the result logged for Nc1cccc(CNc2ccc(S(=O)(=O)Nc3nccs3)cc2)c1O in this assay?
1
